Value source: patent US8518946B2

Hi there, I'd appreciate the recorded Tmax for every entry that follows.
Assay Protocol: Pharmacokinetics assay in rats (LC/MS/MS plasma concentration)
Format: in vivo, SD rats
Measurement Conditions: both sexes, SD, rat, plasma, po, 3 mg/kg, intragastric 3.0 mg/kg, read-out: Tmax
Express your answer in h, writing the number without its unit.

Please report the recorded Tmax for N[C@@H](CC(=O)N1CCn2c(C(F)(F)F)nc(C(=O)O)c2C1)Cc1cc(F)c(F)cc1F . 1.25

Also need N[C@@H](CC(=O)N1CCn2c(C(F)(F)F)nc(C(=O)O)c2C1)Cc1cc(F)c(F)cc1F.O=C(O)C[C@H](O)C(=O)O , thanks. 1.63

Also need N[C@@H](CC(=O)N1CCn2c(C(F)(F)F)nc(C(=O)O)c2C1)Cc1cc(F)c(F)cc1F.O=C(O)C(O)C(O)C(=O)O , thanks. 1.75

Also need Cl.N[C@@H](CC(=O)N1CCn2c(C(F)(F)F)nc(C(=O)O)c2C1)Cc1cc(F)c(F)cc1F , thanks. 2.5

Also need N[C@@H](CC(=O)N1CCn2c(C(F)(F)F)nc(C(=O)[O-])c2C1)Cc1cc(F)c(F)cc1F.[Na+] , thanks. 1.75
